// Nicotinic acetylcholine receptor (Rattus leucopus) pKi records
Note on units: pKi is unitless, being -log10 of a concentration expressed in mol/L.

(Q) Name the recorded pKi for CN1C(=O)CCC1c1cccnc1 (centres undefined) .
(A) 5.30

(Q) Same question, `CN1[C@@H](C[C@@H](O)c2ccccc2)CCC[C@H]1CC(=O)c1ccccc1` this time
(A) 8.05

(Q) Same question, C[N+](C)(C)CCCCCCCCCC[N+](C)(C)C [Decamethonium Iodide] this time
(A) 5.51

---

// Nicotinic acetylcholine receptor (Rattus leucopus, UniProt Q62594) Ki records

(Q) Name the recorded Ki for COc1cc(CC(C)N)cc(OC)c1OC (stereo not drawn) .
(A) 0.375 µM

(Q) Same question, `C=C(C=O)C[C@H]1C[C@H](O)[C@]2(C)O[C@@H]3C[C@@H]4O[C@@H]5C[C@]6(C)O[C@]7(C)CC[C@@H]8O[C@@H]9C[C@]%10(C)O[C@@H]%11C(C)=CC(=O)O[C@H]%11C[C@H]%10O[C@H]9C[C@@H](C)[C@H]8O[C@H]7C[C@H]6O[C@@]5(C)C/C=C\[C@H]4O[C@H]3C[C@H]2O1` this time
(A) > 10 µM

(Q) Same question, `COc1cc2c3cc1Oc1cc(ccc1O)C[C@@H]1c4c(cc(OC)c(O)c4Oc4ccc(cc4)C[C@@H]3N(C)CC2)CC[N+]1(C)C` this time
(A) > 10 µM

The measured values listed here are drawn from BindingDB's records for PubMed 3702863.
